# System under test: T1, HCV Core1-169 (HCV-1, UniProt P26664 1-169)
# T1 construct: also called recombinant HCV core antigen
# T1 sequence: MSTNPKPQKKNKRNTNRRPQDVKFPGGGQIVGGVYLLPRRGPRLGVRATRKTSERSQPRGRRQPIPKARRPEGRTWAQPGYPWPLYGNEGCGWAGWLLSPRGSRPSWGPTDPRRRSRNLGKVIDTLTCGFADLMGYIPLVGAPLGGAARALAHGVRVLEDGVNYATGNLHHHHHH
# Test details: EIA, core1-169 coated on plate; further: test concentration or dose not given here
Property measured: OD (A492) (OD)
The response must be a number in OD with no trailing unit.

[[record]]
binder = "HCV 208A-207 (antibody, V domains shown) VH: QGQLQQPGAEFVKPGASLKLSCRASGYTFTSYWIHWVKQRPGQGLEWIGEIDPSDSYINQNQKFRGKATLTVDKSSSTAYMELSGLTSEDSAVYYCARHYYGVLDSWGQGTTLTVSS VL: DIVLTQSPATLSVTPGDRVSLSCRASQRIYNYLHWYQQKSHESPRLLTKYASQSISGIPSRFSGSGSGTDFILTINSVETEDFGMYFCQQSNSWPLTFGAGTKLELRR"
endpoint_value = 0.11

[[record]]
binder = "HCV 208B-822 (antibody, V domains shown) VH: QVQLKQSGPGLVQPSQSLSITCTVSGFSLITYGVHWVRQSPGKGLEWLGVIWGGGSTGYNAAFVSRLNITKDNSKSQVFFKMNSLQPDDTAIYYCARNGGATVFDYWGQGTTLTVSS VL: DIVMTQSPATLSVTPGDRVSLSCRASQTISDYLHWYQQKSHESPRLLIKYASQSISGIPSRFSGSGSGSHFTLSINSVEPEDVGVYYCQNGHSFPWTFGGGTKLEIKR"
endpoint_value = 0.22

[[record]]
binder = "HCV 208B-178 (antibody, V domains shown) VH: DVKLVESGGGLVKLGGSLKLSCAASGFTFSSYYMSWVRQTPEKRLELVAAINSNGGSTYYPDTVKGRFTISRDNAKNTLYLQMSSLKSEDTALYYCARHGGLGRRDWYFDVWGAGTTVTVSS VL: DIVLTQSPASLAVSLGQRATISCRASESVDNYGISFMHWYQQKPGQPPKLLIYRASNLESGIPARFSGSGSRTDFTLTINPVETDDVATYYCQQSNKDPFTFGSGAKLEIKR"
endpoint_value = 0.89

[[record]]
binder = "HCV 208A-557 (antibody, V domains shown) VH: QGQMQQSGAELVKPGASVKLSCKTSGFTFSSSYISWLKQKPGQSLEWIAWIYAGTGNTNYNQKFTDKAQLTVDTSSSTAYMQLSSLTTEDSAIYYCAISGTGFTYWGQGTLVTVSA VL: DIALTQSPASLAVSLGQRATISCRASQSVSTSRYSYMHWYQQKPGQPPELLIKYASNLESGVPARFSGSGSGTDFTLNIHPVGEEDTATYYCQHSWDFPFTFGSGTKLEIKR"
endpoint_value = 1.4

[[record]]
binder = "HCV 208B-408 (antibody, V domains shown) VH: EVKLVESGGGLVQPGGSLRLSCASSGFTFTDYYMSWVRQPPGKALEWLGFIRNKAYGYTTEFSASVNGRFTISRDDSQSVPYLQMNTLRAEDSATYYCARVLYYDYGGFAYWGQGTLVTVST VL: DIQMTQSPASLSASVGETVTITCRASGNIHTYLAWYQQKQGKSPQLLVYNANTLADGVPSRFSGSGSGTQFSLKINSLQPDDFGSYYCQHFWSAPWTFGGGTQLEIKR"
endpoint_value = 0.09


--- query ---
If you can, please state the reported OD (A492) value of HCV 208B-517 (antibody, V domains shown) VH: QVQLKQSGPGLVQPSQSLSITCTVSGFSLITHGVHWVRQSPGKGLEWLGVIWSGGSTDYNAAFISRLSISKDTSKSQVFLKMSSLQADDTAIYYCARNGGATAFDYWGQGTTLTVSS VL: DIVMTQSPATLSVTPGDRVSLSCRASQSISDYLHWYQQKSHESPRLLIKYASQSISGIPSRFRGSGSGSHFTLSINSVEPEDVGVYYCQNGHSFPWTFGGGTKLEIKR .
0.79
